# Test system: tetrabenazine-induced depression
# Protocol description: Antagonism (prevention) of tetrabenazine-induced sedation and depression in mice, orally
# Assay type: in vivo, mice (Carworth CF1 S female)
# Condition label: Mus musculus, po, 1 h, read-out: ORAL ED50 for prevention of ptosis, mice, oral, at one hour post-drug; tetrabenazine 32 mg/kg i.p. 30 min after compound
Label Fulfilled when ED50 is strictly below 0.3 mg/kg; at or above that, label Not fulfilled.

Observe how each entry below is paired with its result.
Compound	Tgt	Class label
Cc1ccc(C2(C(C)(C)O)CCN(C)CC2)cc1	tetrabenazine-induced depression	Not fulfilled
COc1cccc(C2(C3(O)CCCCCCC3)CCN(C)CC2)c1	tetrabenazine-induced depression	Not fulfilled
CN1CCC(c2cccc(Cl)c2)(C(C)(C)O)CC1	tetrabenazine-induced depression	Fulfilled

Task: Decide: ED50 of CCN1CCC(c2cccc(C(F)(F)F)c2)(C(C)(C)O)CC1 strictly below 0.3 mg/kg?
Result: Not fulfilled

Task: Please state whether ED50 is below 0.3 mg/kg for CN1CCC(c2ccc(-c3ccccc3)cc2)(C(C)(C)O)CC1
Result: Not fulfilled

Task: # strict comparison: is reported ED50 < 0.3 mg/kg? input = CCC(O)(CC)C1(c2cccc(OC)c2)CCN(C)CC1
Result: Not fulfilled

###

# Test system: tetrabenazine-induced depression
# Protocol description: Antagonism (prevention) of tetrabenazine-induced sedation and depression in mice, orally
# Type: in vivo, mice (Carworth CF1 S female)
# Condition label: Mus musculus, po, 1 h, read-out: ORAL ED50 for prevention of ptosis, mice, oral, at one hour post-drug; tetrabenazine 32 mg/kg i.p. 30 min after compound
The label is Y for ED50 below 0.9 mg/kg and N for ED50 equal to or exceeding 0.9 mg/kg.

Answered cases to consult:
Compound	Class label
Cc1cccc(C2(C(C)(C)O)CCN(C)CC2)c1	Y
CN(C)CCCN1c2ccccc2CCc2ccccc21 [Imipramine, reference compound]	N
COc1cccc(C2(C(C)(C)O)CCN(C)CC2C)c1 (stereo not drawn)	N
CN1CCC(c2cccn2C)(C(C)(C)O)CC1	Y

Let us examine a further case.
Task: Identify whether the compound COc1cccc(C2(C3(O)CCCC3)CCN(C)CC2)c1 records ED50 below 0.9 mg/kg.
Result: Y

###

# Test system: tetrabenazine-induced depression
# Protocol description: Antagonism (prevention) of tetrabenazine-induced sedation and depression in mice, orally
# Type: in vivo, mice (Carworth CF1 S female)
# Condition label: Mus musculus, po, 1 h, read-out: ORAL ED50 for prevention of ptosis, mice, oral, at one hour post-drug; tetrabenazine 32 mg/kg i.p. 30 min after compound
Consider the following compounds; for each one, report its log10 of ED50.
In plain terms, each number is the log10 of measured ED50 in mg/kg.

Would you please look over these solved cases?
Compound	Readout kind	Measured
CN1CCC(c2cccc(-c3ccccc3)c2)(C(C)(C)O)CC1	log10 of ED50	-0.18
CN1CCC(c2ccc(Cl)cc2)(C(C)(C)O)CC1	log10 of ED50	-0.48
CN1CCC(c2cccc(F)c2)(C(C)(C)O)CC1	log10 of ED50	-0.92
CN1CCC(c2ccc(F)cc2)(C(C)(C)O)CC1	log10 of ED50	-0.48
CSc1ccc(C2(C(C)(C)O)CCN(C)CC2)cc1	log10 of ED50	0.11

State recorded log10 of ED50 for all listed compounds.
1. Cc1ccc(C2(C(C)(C)O)CCN(C)CC2)cc1C
2. COc1cccc(C2(C(C)(C)O)CCN(C)CC2)c1OC
3. Cc1ccccc1C1(C(C)(C)O)CCN(C)CC1
4. COc1cccc(C2(C(C)(C)O)CCN(Cc3ccccc3)CC2)c1OC

Result:
[-0.64, 0.32, -0.48, 1.91]

Please go through the list and note log10 of ED50 for each compound.
1. CN1CCC(c2ccc(N(C)C)cc2)(C(C)(C)O)CC1
2. COc1cccc(C2(C3(O)CCCC3)CCN(C)CC2)c1OC
3. Cc1cc(C)cc(C2(C(C)(C)O)CCN(C)CC2)c1
4. COc1cccc(C2(C(C)(C)O)CCNCC2)c1

Result:
-0.46
0.45
-1.19
0.43

###

For each of the molecules below, state its ED50.
# Test system: tetrabenazine-induced depression
# Protocol description: Antagonism (prevention) of tetrabenazine-induced sedation and depression in mice, orally
# Assay type: in vivo, mice (Carworth CF1 S female)
# Condition label: Mus musculus, po, 1 h, read-out: ORAL ED50 for prevention of ptosis, mice, oral, at one hour post-drug; tetrabenazine 32 mg/kg i.p. 30 min after compound

Please review the entries below; each comes with its answer.
Molecule	ED50
COc1ccc2cc(C3(C(C)(C)O)CCN(C)CC3)ccc2c1	< 0.33 mg/kg
COc1cccc(C2(C3(O)CCCC3)CCN(Cc3ccccc3)CC2)c1OC	> 81 mg/kg
CC1CCC(O)(C2(c3cccc(C(F)(F)F)c3)CCN(C)CC2)C1 (racemic) [Example 46]	< 1 mg/kg
CN1CCC(c2cccc(C(F)(F)F)c2)(C2(O)CCCC2)CC1	0.084 mg/kg
COc1cccc(C2(C3(O)CCC3)CCN(C)CC2)c1	0.67 mg/kg

Each molecule below has a reported value. Please supply its ED50.
1. CC(C)(O)C1(c2cccc(C(F)(F)F)c2)CCN2CCCC2C1 (stereo not shown)
2. COc1cccc(C2(C3(O)CCCCC3)CCN(C)CC2)c1
3. CCC(O)(CC)C1(c2cccc(Cl)c2)CCN(C)CC1

Result:
["0.48 mg/kg", "1.1 mg/kg", "0.26 mg/kg"]

Hi there! I need ED50 for each item below, if you can.
1. COc1ccc(C2(C(C)(C)O)CCN(C)CC2)cc1
2. CN1CCC(c2ccc(Oc3ccccc3)cc2)(C(C)(C)O)CC1
3. COc1cccc(C2(C3(O)CCCCCC3)CCN(C)CC2)c1

Result:
["0.33 mg/kg", "81 mg/kg", "0.9 mg/kg"]

For every item below, please supply its ED50.
1. Cc1cccc(C2(C(C)(C)O)CCN(C)C(C)C2)c1 (stereo not shown)
2. CCC(C)(O)C1(c2cccc(C(F)(F)F)c2)CCN(C)CC1 (stereo not shown)
3. CCC(C)(O)C1(c2cccc(OC)c2)CCN(C)CC1 (stereo not shown)
4. CC1CCC(O)(C2(c3cccc(C(F)(F)F)c3)CCN(C)CC2)C1 (single isomer, unassigned; (-)) [Example 47]

Result:
["0.33 mg/kg", "0.056 mg/kg", "0.11 mg/kg", "< 1 mg/kg"]

Dear colleague, could you please provide ED50 for the molecules listed below?
1. COc1ccccc1C1(C(C)(C)O)CCN(C)CC1
2. CN1CCC(c2cccnc2)(C(C)(C)O)CC1
3. COc1cccc(C2(C3(O)CCCCC3)CCN(C)CC2)c1OC

Result:
0.57 mg/kg
18 mg/kg
17 mg/kg

// input: 2 molecules below; output: ED50 for each
1. COc1ccc(OC)c(C2(C(C)(C)O)CCN(C)CC2)c1
2. CN1CCC(c2cccc(C(F)(F)F)c2)(C(C)(C)O)CC1

Result:
1: 0.86 mg/kg; 2: 0.016 mg/kg

Value sought for every listed molecule: ED50.
1. Cc1ccc(C2(C(C)(C)O)CCN(C)CC2)s1
2. CN1CCC(c2ccccc2)(C(C)(C)O)CC1

Result:
0.69 mg/kg
0.78 mg/kg

Every entry's value here was drawn from patent US4485109A.
